tested-target: Probable G-protein coupled receptor 174 (Homo sapiens, UniProt Q9BXC1)
Sequence (Q9BXC1 whole entry): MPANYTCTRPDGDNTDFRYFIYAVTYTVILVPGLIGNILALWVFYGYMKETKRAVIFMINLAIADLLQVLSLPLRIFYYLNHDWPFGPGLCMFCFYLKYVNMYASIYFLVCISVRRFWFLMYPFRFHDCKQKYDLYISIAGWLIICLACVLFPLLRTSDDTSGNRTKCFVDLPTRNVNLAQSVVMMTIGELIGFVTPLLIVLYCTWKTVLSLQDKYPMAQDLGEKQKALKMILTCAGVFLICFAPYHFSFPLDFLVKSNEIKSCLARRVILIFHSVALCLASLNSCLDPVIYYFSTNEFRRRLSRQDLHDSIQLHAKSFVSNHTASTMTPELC
experiment: Inverse agonist activity at human GPR174 assessed as fold decrease in Gs signalling activity by CRA
Format: functional
condition-parameters: filed as inverse agonist
Please respond with reported fold change (FC) for every item in the list.

Solved entries (count: 5):
INSERT INTO results (compound, measured_result) VALUES
  ('CCc1ccc(C2C3=C(CCCC3=O)NC3=C2C(=O)c2ccccc23)cn1 (configuration not stated)', 2),
  ('O=C1CCCC2=C1C(c1ccc(Oc3ccccc3)cc1)C1=C(N2)c2ccccc2C1=O (configuration not stated)', 1),
  ('C=CCOc1ccc(C2C3=C(CCCC3=O)NC3=C2C(=O)c2ccccc23)cc1 (configuration not stated)', 1.2),
  ('CCC(=O)N1CCN(c2cc(N3CCC(C)CC3)c(F)cc2[N+](=O)[O-])CC1', 0.4),
  ('O=C1CCCC2=C1C(c1ccc(OC(F)(F)F)cc1)C1=C(N2)c2ccccc2C1=O (configuration not stated)', 1.2);

Can you give me fold change (FC) for all of these, one by one?
1. CCOc1ccc(C2C3=C(CCCC3=O)NC3=C2C(=O)c2ccccc23)cn1 (configuration not stated)
2. O=C1CCCC2=C1C(c1ccc3c(c1)OCCO3)C1=C(N2)c2ccccc2C1=O (configuration not stated)
3. COc1ccc(C2C3=C(CCCC3=O)NC3=C2C(=O)c2ccccc23)cc1 (configuration not stated)

**A:**
1: 0.6; 2: 2.6; 3: 1
